# test-system: Fumarylacetoacetate hydrolase (WT FAH) (Homo sapiens, UniProt P16930)
# Sequence (P16930 2-419): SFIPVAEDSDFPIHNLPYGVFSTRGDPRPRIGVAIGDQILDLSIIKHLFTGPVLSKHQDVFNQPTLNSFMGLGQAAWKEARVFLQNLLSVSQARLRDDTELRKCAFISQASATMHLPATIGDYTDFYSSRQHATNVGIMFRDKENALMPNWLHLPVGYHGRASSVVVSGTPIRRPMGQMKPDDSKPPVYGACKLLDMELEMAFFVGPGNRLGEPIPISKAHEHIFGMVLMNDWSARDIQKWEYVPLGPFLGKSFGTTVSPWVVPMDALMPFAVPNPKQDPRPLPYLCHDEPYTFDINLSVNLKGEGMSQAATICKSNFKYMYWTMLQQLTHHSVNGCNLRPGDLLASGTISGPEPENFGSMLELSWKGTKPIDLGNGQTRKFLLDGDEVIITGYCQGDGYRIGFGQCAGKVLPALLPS
# procedure-text: STD NMR titration; methyl-TROSY M140 splitting
# Type: binding
property-measured: Kd

Returns the measured Kd for the input molecule. Input: C#Cc1ccncc1
235 µM

Cited source: paper PMC7916972
